Measured relative viability values are reported for all entries that follow.
System: HCC-78
assay.procedure: relative viability (nuclei count vs DMSO), 5 days (fraction); higher = more cells survive
setup.conditions: first compound 6.325 µM

{"compound": "Cc1csc(=NC2CCCCC2)n1/N=C/c1ccc(O)c(O)c1O [MIM1] + COc1cccc2cc(-c3nc([C@H]4CC[C@H](C(=O)O)CC4)n4ncnc(N)c34)[nH]c12 [OSI-027] (partner 0.5 µM)", "relative viability": 0.384}
{"compound": "Cc1csc(=NC2CCCCC2)n1/N=C/c1ccc(O)c(O)c1O [MIM1] + CC(=O)Nc1cccc(-n2c(=O)n(C3CC3)c(=O)c3c(Nc4ccc(I)cc4F)n(C)c(=O)c(C)c32)c1 [Trametinib] (partner 0.02 µM)", "relative viability": 0.556}
{"compound": "Cc1csc(=NC2CCCCC2)n1/N=C/c1ccc(O)c(O)c1O [MIM1] + CC(=O)c1c(C)c2cnc(Nc3ccc(N4CCNCC4)cn3)nc2n(C2CCCC2)c1=O [Palbociclib] (partner 0.5 µM)", "relative viability": 0.377}
{"compound": "Cc1csc(=NC2CCCCC2)n1/N=C/c1ccc(O)c(O)c1O [MIM1] + C[C@]1(O)C[C@@H](c2nc(-c3ccc4ccc(-c5ccccc5)nc4c3)c3c(N)nccn32)C1 [Linsitinib] (partner 1 µM)", "relative viability": 0.439}
{"compound": "Cc1csc(=NC2CCCCC2)n1/N=C/c1ccc(O)c(O)c1O [MIM1] + O=C(CCCCCCC(=O)Nc1ccccc1)NO [Vorinostat] (partner 1 µM)", "relative viability": 0.424}
{"compound": "Cc1csc(=NC2CCCCC2)n1/N=C/c1ccc(O)c(O)c1O [MIM1] + CC1(C)CCC(c2ccc(Cl)cc2)=C(CN2CCN(c3ccc(C(=O)NS(=O)(=O)c4ccc(N[C@H](CCN5CCOCC5)CSc5ccccc5)c(S(=O)(=O)C(F)(F)F)c4)cc3)CC2)C1 [Navitoclax] (partner 0.5 µM)", "relative viability": 0.562}
{"compound": "Cc1csc(=NC2CCCCC2)n1/N=C/c1ccc(O)c(O)c1O [MIM1] + Cc1nc(NC(=O)N2CCC[C@H]2C(N)=O)sc1-c1ccnc(C(C)(C)C(F)(F)F)c1 [Alpelisib] (partner 2 µM)", "relative viability": 0.365}
{"compound": "Cc1csc(=NC2CCCCC2)n1/N=C/c1ccc(O)c(O)c1O [MIM1] + O=C(c1cc(Cc2n[nH]c(=O)c3ccccc23)ccc1F)N1CCN(C(=O)C2CC2)CC1 [Olaparib] (partner 8 µM)", "relative viability": 0.47}
{"compound": "Cc1csc(=NC2CCCCC2)n1/N=C/c1ccc(O)c(O)c1O [MIM1] + CC(C)C[C@H](NC(=O)[C@H](Cc1ccccc1)NC(=O)c1cnccn1)B(O)O [Bortezomib] (partner 0.002 µM)", "relative viability": 0.418}
